Target System: BChE from human plasma (Homo sapiens, UniProt P06276)
Construct: butyrylcholiesterase from human plasma; purchased Sigma-Aldrich; host or cells: human plasma
Sequence (P06276 29-602): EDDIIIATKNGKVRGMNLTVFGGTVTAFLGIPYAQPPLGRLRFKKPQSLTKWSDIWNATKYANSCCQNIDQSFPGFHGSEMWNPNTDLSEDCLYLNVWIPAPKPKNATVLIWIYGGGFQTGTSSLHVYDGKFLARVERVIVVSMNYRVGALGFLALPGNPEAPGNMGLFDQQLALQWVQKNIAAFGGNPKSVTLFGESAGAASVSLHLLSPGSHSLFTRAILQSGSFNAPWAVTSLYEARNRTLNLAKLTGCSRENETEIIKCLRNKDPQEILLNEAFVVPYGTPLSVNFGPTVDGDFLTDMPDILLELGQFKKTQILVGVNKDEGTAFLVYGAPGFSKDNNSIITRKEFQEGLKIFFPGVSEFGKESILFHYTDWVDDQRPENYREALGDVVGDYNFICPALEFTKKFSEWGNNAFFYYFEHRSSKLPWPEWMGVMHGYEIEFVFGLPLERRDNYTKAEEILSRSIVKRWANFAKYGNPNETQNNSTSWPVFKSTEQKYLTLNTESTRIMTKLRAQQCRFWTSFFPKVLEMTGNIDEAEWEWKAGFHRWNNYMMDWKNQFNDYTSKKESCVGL
Experimental Protocol: In vitro cholinesterase inhibition (Ellman), BuChE
Assay type: biochemical
Experimental Parameters: Table 2; human BuChE; read-out: IC50 BuChE
Recorded Metric: IC50 (µM)
State the answer as a number, implicitly in µM.

| Smiles Record | IC50 / µM |
| --- | --- |
| CCN(CCCCCn1c(=O)ccn(CCCCn2c(C)cc(=O)n(C)c2=O)c1=O)Cc1ccccc1C#N | 48.3 |
| CCN(CCCCCn1c(=O)ccn(CCCn2c(C)cc(=O)n(C)c2=O)c1=O)Cc1ccccc1C#N | 69.1 |

Request: Would you mind telling me what IC50 value was observed for CCN(CCCCCn1c(=O)ccn(CCCCCn2c(C)cc(=O)n(C)c2=O)c1=O)Cc1ccccc1C#N ?
Response: 28

Request: # iterate: CCN(CCCCCn1c(=O)ccn(CCCCCCn2c(C)cc(=O)n(C)c2=O)c1=O)Cc1ccccc1C#N
Response: 95
